The reported measurements were obtained from patent US20210355194A1.

Items are presented alongside their recorded pKd.
MEASUREMENT_TARGET: CV S-protein construct 6 trimer TP31001F (SARS-CoV-2, UniProt P0DTC2 14-1208)
MEASUREMENT_PROTOCOL: SPR
Scale: pKd equals -log10([C]), with [C] in mol/L.

Example cases with answers are listed next.
BINDER | pKd
variant 6-38 (Fc fusion) VHH: EVQLVESGGGLVQPGGSLRLSCAASGNTFSGGFMGWFRQAPGKEREFVAVISSLSSKSYADSVKGRFTISADNSKNTAYLQMNSLKPEDTAVYYCAKVDSGYDYWGQGTLVTVSS | 9.30
variant 5-64 (Fc fusion) VHH: EVQLVESGGGLVQPGGSLRLSCAASGTSISNRVMGWFRQAPGKERELVARIYTGGDTLYADSVKGRFTISADNSKNTAYLQMNSLKPEDTAVYYCAARKIYRSLSYYGDYDWGQGTLVTVSS | 6.66
variant 6-76 (Fc fusion, VHH-Fc) VHH: EVQLVESGGGLVQPGGSLRLSCAASGLAFDFDGMGWFRQAPGKEREGVAAINSGGSTYYADSVKGRFTISADNSKNTAYLQMNSLKPEDTAVYYCARFFRAHDYWGQGTLVTVSS | 8.74
variant 6-28 (Fc fusion) VHH: EVQLVESGGGLVQPGGSLRLSCAASGDTYGSYWMGWFRQAPGKEREFVATITSDDRTNYADSVKGRFTISADNSKNTAYLQMNSLKPEDTAVYYCARVTSSLSGMDVWGQGTLVTVSS | 9.40

Kindly consider the entry below.
What does the record list as pKd for variant 6-78 (Fc fusion, VHH-Fc) VHH: EVQLVESGGGLVQPGGSLRLSCAASGRTYDAMGWFRQAPGKEREFVASVTSGGYTHYADSVKGRFTISADNSKNTAYLQMNSLKPEDTAVYYCAKFGRKIVGATELDYWGQGTLVTVSS ?
9.40
